The values you see were collected from patent US11202766B1.

Test: Single-dose crossover oral food effect study (fed vs fasting pharmacokinetics)
Conditions: human, in vivo, po, t1/2 of Hydrocodone bitartrate, Mean, Fasting Condition (Treatment B); one tablet 5 mg hydrocodone bitartrate/400 mg guaifenesin
Experimental: A randomized, open-label, balanced, two-treatment, two-period, two sequence, single-dose, two-way crossover oral food effect study was conducted comparing administration of rapidly dissolving pharmaceutical composition tablets including 5 mg hydrocodone bitartrate and 400 mg guaifenesin per tablet to healthy subjects under fed and fasting conditions. […] Pharmacokinetic parameters were measured for fed and fasting conditions of subjects for both hydrocodone bitartrate and guaifenesin. […]
assay.endpoint: half-life
Returns: string containing the numeric result and its unit.

(Q) Query: half-life; subject: COc1ccc2c3c1O[C@H]1C(=O)CC[C@H]4[C@@H](C2)N(C)CC[C@]314.O=C(O)C(O)C(O)C(=O)O [Hydrocodone bitartrate, hydrocodone bitartrate]
(A) 4.95 h

----------
Assay: Single-dose crossover oral food effect study (fed vs fasting pharmacokinetics)
Conditions: human, in vivo, po, Tmax of Hydrocodone bitartrate, Mean, Fed Condition (Treatment A); one tablet 5 mg hydrocodone bitartrate/400 mg guaifenesin
assay.endpoint: Tmax (h)
Answers are plain numbers, in h.

(Q) Would you kindly share the measured Tmax for COc1ccc2c3c1O[C@H]1C(=O)CC[C@H]4[C@@H](C2)N(C)CC[C@]314.O=C(O)C(O)C(O)C(=O)O [Hydrocodone bitartrate, hydrocodone bitartrate] ?
(A) 2.08

----------
Assay: Single-dose crossover oral food effect study (fed vs fasting pharmacokinetics)
Settings: human, in vivo, po, Tmax of Hydrocodone bitartrate, Mean, Fasting Condition (Treatment B); one tablet 5 mg hydrocodone bitartrate/400 mg guaifenesin
assay.endpoint: Tmax (h)
Answers are plain numbers, in h.

(Q) Can you share its Tmax? I mean this compound: COc1ccc2c3c1O[C@H]1C(=O)CC[C@H]4[C@@H](C2)N(C)CC[C@]314.O=C(O)C(O)C(O)C(=O)O [Hydrocodone bitartrate, hydrocodone bitartrate]
(A) 1.61
